Assay: Human pharmacokinetics, healthy subjects, 7.5-hour continuous ascending dose IV infusion
Assay type: in vivo
Details: human, in vivo, healthy subjects, infusion rate 36/72/144 ng/kg/min, N = 1; read-out: CL (converted)
measurement.name: clearance (mL/min/kg)
Reply with just the number (in mL/min/kg).

The substance listed as H-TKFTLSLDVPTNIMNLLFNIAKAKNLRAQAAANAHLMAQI-NH2 [SEQ ID NO: 1] shows clearance equal to 4.5
